- Test system: MDA-MB-231
- method-description: NCI tumour cell line growth inhibition, 48 h
The source made the active and inactive calls. Cut-off read from the data, not from the text of the source: active = GI50 up to about 1.1 µM and inactive = higher.
Reported GI50 values follow for various compounds

[
  {
    "compound": "CC(C#N)NCc1ccc(C(C)NC(C)C#N)cc1 (stereo unspecified)",
    "GI50": "> 100 µM (inactive)"
  },
  {
    "compound": "CCCCc1ccc(Nc2nc(Cl)c3ncn(COCCOC(C)=O)c3n2)cc1",
    "GI50": "15.3 µM (inactive)"
  },
  {
    "compound": "N#C/C(=C\\n1ccc(=O)[nH]c1=S)C(N)=O",
    "GI50": "> 100 µM (inactive)"
  },
  {
    "compound": "CCOC(=O)c1ccc(NC(=O)O/N=C(/Cl)CC)cc1",
    "GI50": "19.6 µM (inactive)"
  },
  {
    "compound": "Cc1ccc2c(c1)C(C1Cc3c(C)cccc3C1=O)OC2=O (stereo unspecified)",
    "GI50": "> 100 µM (inactive)"
  },
  {
    "compound": "C#CCn1ncc2c(SC)ncnc21",
    "GI50": "> 100 µM (inactive)"
  }
]
